Below, each entry is listed alongside its reported growth.
- System: ACHN renal
- METHOD: NCI-60 one-dose screen, 48 h (100 = growth as untreated, 0 = no growth, -100 = all killed)
- ASSAY_SETUP: 10 µM
The panel holds about 83,000 compounds, 20% with a hit somewhere; the sample as a whole holds those more often.
PROPERTY_MEASURED: growth (%)

{"COMPOUND": "COc1cc(/C=C2\\CCCC3C2=Nc2ccccc2NC3c2cc(OC)c(OC)c(OC)c2)cc(OC)c1OC (stereo unspecified)", "RESULT_NUMBER": -23}
{"COMPOUND": "CCOC(=O)c1cc(C(=O)c2ccc(OC)c(OC)c2)n2c1ccc1ccc3cccnc3c12", "RESULT_NUMBER": 47.4}
{"COMPOUND": "CCOC(=O)c1cc(C(=O)c2ccc(Cl)cc2)n2ccc(-c3cc[n+](CC(=O)c4ccc(OC)cc4)cc3)cc12", "RESULT_NUMBER": 96.4}
{"COMPOUND": "Cc1ccc(/C=C2/C(=O)N(C)c3ccc(S(=O)(=O)Nc4ccc(C(C)(C)C)cc4)cc32)s1", "RESULT_NUMBER": 56}
{"COMPOUND": "COc1cc2cc(Oc3ccc(NC(=O)c4ccc(Cl)c(C(F)(F)F)c4)cc3)c(C)nc2cc1OC", "RESULT_NUMBER": 26.6}
{"COMPOUND": "CC(=O)OC/C=C(/C)C[P+](c1ccccc1)(c1ccccc1)c1ccccc1", "RESULT_NUMBER": 70}
{"COMPOUND": "COc1cc2cc(Oc3ccc(NC(=O)Nc4ccc(Cl)c(C(F)(F)F)c4)cc3)c(C)nc2cc1OC", "RESULT_NUMBER": 13.6}
{"COMPOUND": "N=C1S/C(=C/c2ccc(-c3ccc4c(c3)C(=O)NC4=O)o2)C(=O)N1c1ccc(Br)cc1", "RESULT_NUMBER": 52}
{"COMPOUND": "COc1ccc2c(c1)C(=O)/C(=C/c1ncc([N+](=O)[O-])n1C)O2", "RESULT_NUMBER": 9.55}
{"COMPOUND": "COc1cc2nc(SCC(=O)Nc3cc(OC)c(OC)c(OC)c3)n(Cc3ccccc3)c(=O)c2cc1OC", "RESULT_NUMBER": 66.1}
{"COMPOUND": "O=C(COc1cccc(/C=C2\\CSc3ccccc3C2=O)c1)c1ccc(Cl)cc1", "RESULT_NUMBER": -65.6}
{"COMPOUND": "Cn1c2ccccc2c2c3[nH][nH]c(=O)c3c3c4ccccc4[nH]c3c21", "RESULT_NUMBER": -8.79}
{"COMPOUND": "COc1cc(-c2nn(-c3cccc(NC(=O)CN4CCOCC4)c3)cc2-c2cccnc2)ccc1Cl", "RESULT_NUMBER": 87.6}
{"COMPOUND": "COc1ccc2nc3cc(Cl)ccc3c(Nc3cc(CN4CCCC4)c(O)c(CN4CCCC4)c3)c2n1", "RESULT_NUMBER": 22.9}
{"COMPOUND": "CCOC(=O)CN(c1sc(C)c(C)c1C(=O)OCC)S(=O)(=O)c1ccc(C)cc1", "RESULT_NUMBER": 98.1}
{"COMPOUND": "CN1CCN(c2cc3c(cc2F)c(=O)c(C(=O)O)cn3-c2ccc(F)cc2)CC1", "RESULT_NUMBER": 95.1}

* * *

Reported growth by item:
- Test system: MOLT-4 leukemia
- METHOD: NCI-60 one-dose screen, 48 h (100 = growth as untreated, 0 = no growth, -100 = all killed)
- ASSAY_SETUP: 10 µM
This is part of a sample that, as a whole, favours compounds with a hit. Of some 83,000 tested, about 20% had one in any assay.

{"COMPOUND": "CC(C)[N+]1(C)C2CC[C@@H]1CC(OC(=O)C(CO)c1ccccc1)C2 (some centres undefined)", "growth (%)": 121}
{"COMPOUND": "O=c1cn[nH]c2ccc(Br)cc12", "growth (%)": 86.5}
{"COMPOUND": "COc1ccc2c(c1)OC(N)=C(C#N)C2c1cc(OC)c(OC)c(OC)c1 (centres undefined)", "growth (%)": 7.89}
{"COMPOUND": "C/C=C/CSC(C)(C)C(=O)NC", "growth (%)": 102}
{"COMPOUND": "COc1ccc(-c2cc(-c3ccccc3)nc(SCCCC(=O)NO)n2)cc1", "growth (%)": 4.82}
{"COMPOUND": "Nc1cc(Br)c(-c2nn3c(CCC(=O)c4nc5ccccc5[nH]4)nnc3s2)c(Br)c1", "growth (%)": 84.9}
{"COMPOUND": "Cc1ccc(Cl)cc1NC(=O)CCl", "growth (%)": 32}
{"COMPOUND": "O=C(CN(C1CCCCC1)C1CCCCC1)Nc1ccc(S(=O)(=O)c2ccc(NC(=O)CN(C3CCCCC3)C3CCCCC3)cc2)cc1", "growth (%)": -25.2}
{"COMPOUND": "COc1cccc(N=Nc2cccc(OC)c2)c1", "growth (%)": 79.5}
{"COMPOUND": "CN(C)CCOc1ccc(-c2nc3sccn3c2-c2ccnc(S(C)(=O)=O)n2)cc1", "growth (%)": 109}
{"COMPOUND": "C=CCNCCN1C(=O)c2ccc3c4c(ccc(c24)C1=O)C(=O)N(CCNCC=C)C3=O", "growth (%)": -18.3}
{"COMPOUND": "C=CCn1c(SCC(=O)Nc2ccc(C(=O)/C=C/c3ccc(Cl)cc3)cc2)nnc1-c1cc(-c2ccccc2)nc2ccccc12", "growth (%)": 12.8}
{"COMPOUND": "Cc1c(Cl)cccc1NC(=O)CCCl", "growth (%)": 85.3}
{"COMPOUND": "CN(C)CCC1(c2ccccc2)CCN(C)C1=O (centres undefined)", "growth (%)": 95.6}

* * *

growth by entry:
- System: CAKI-1 renal
- METHOD: NCI-60 one-dose screen, 48 h (100 = growth as untreated, 0 = no growth, -100 = all killed)
- ASSAY_SETUP: 10 µM
This is part of a sample that, as a whole, favours compounds with a hit. Of some 83,000 tested, about 20% had one in any assay.
PROPERTY_MEASURED: growth (%)

{"MOLECULE": "C[N+]1(CCCCC[N+]2(C)CCCC2)CCCC1", "SYSTEM_NAME": "CAKI-1 renal", "PROPERTY_MEASURED": "growth", "RESULT_NUMBER": 78.6}
{"MOLECULE": "COc1cc2c(cc1OC)C(C(CCCCCC(CCC(C)C)C1NCCc3cc(OC)c(OC)cc31)CCC(C)C)NCC2 (stereo not drawn)", "SYSTEM_NAME": "CAKI-1 renal", "PROPERTY_MEASURED": "growth", "RESULT_NUMBER": -84.7}
{"MOLECULE": "COc1cc(NC(=O)C2=C(N3CCOCC3)/C(=C/c3ccc(Cl)cc3)CC2)cc(OC)c1OC", "SYSTEM_NAME": "CAKI-1 renal", "PROPERTY_MEASURED": "growth", "RESULT_NUMBER": 84.6}
{"MOLECULE": "CCCCC/C=C/C/C=C/CCCCCCCC1=NC(C)(C)CN1C(C)C", "SYSTEM_NAME": "CAKI-1 renal", "PROPERTY_MEASURED": "growth", "RESULT_NUMBER": 26.9}
{"MOLECULE": "CCN(CC)CCCC(C)N=C(C1=C(C(=NC(C)CCCN(CC)CC)c2cccc(OC)c2)C(=O)NC1=O)c1cccc(OC)c1 (stereo not drawn)", "SYSTEM_NAME": "CAKI-1 renal", "PROPERTY_MEASURED": "growth", "RESULT_NUMBER": -57.9}
{"MOLECULE": "Oc1ccc(-c2[nH]c3ccccc3c2-c2nc3ccccc3o2)cc1", "SYSTEM_NAME": "CAKI-1 renal", "PROPERTY_MEASURED": "growth", "RESULT_NUMBER": 64}
{"MOLECULE": "O=C(c1ccccc1)N(C(=O)c1ccccc1)N1CCCC1", "SYSTEM_NAME": "CAKI-1 renal", "PROPERTY_MEASURED": "growth", "RESULT_NUMBER": 91.1}
{"MOLECULE": "COc1cccc(CNc2cccc3cn[nH]c23)c1O", "SYSTEM_NAME": "CAKI-1 renal", "PROPERTY_MEASURED": "growth", "RESULT_NUMBER": 85.9}

* * *

- System: A549/ATCC NSCLC
- METHOD: NCI-60 one-dose screen, 48 h (100 = growth as untreated, 0 = no growth, -100 = all killed)
- ASSAY_SETUP: 10 µM
About 83,000 compounds went through this panel and 20% of them were active in at least one assay; those are over-represented in the sample as a whole.
Reported growth by item:

{"COMPOUND": "COc1ccc(-c2csc(NC(=O)c3ccc(Cc4n[nH]c(=O)c5cccnc45)cc3)n2)cc1", "growth [%]": 101}
{"COMPOUND": "O=C1/C(=C/c2cccc(F)c2)Cc2ccccc21", "growth [%]": 87.7}
{"COMPOUND": "COc1cc(-c2nn(-c3cccc(NC(=O)CN4CCOCC4)c3)cc2-c2cccnc2)ccc1Cl", "growth [%]": 83.8}
{"COMPOUND": "CCn1c2ccc(O)cc2c2c(C)c3c[n+](C)ccc3c(C)c21", "growth [%]": 37.5}
{"COMPOUND": "CCN(CC)CCOc1ccc2c(c1O)C(=O)c1ccccc1C2=O", "growth [%]": 78.6}
{"COMPOUND": "CN1CCN(CCC(=O)Nc2cccc(-n3cc(-c4ccncc4)c(-c4ccc(Cl)c(O)c4)n3)c2)CC1", "growth [%]": 30.2}
{"COMPOUND": "CN(C)CCN(Cc1ccccc1)c1ccc2ccccc2n1", "growth [%]": 95.6}
{"COMPOUND": "CC(=O)OC/C=C(/C)C[P+](c1ccccc1)(c1ccccc1)c1ccccc1", "growth [%]": 64.6}
{"COMPOUND": "O=C(CCCCC(=O)Oc1c(Cl)cc(Cl)cc1[N+](=O)[O-])Oc1c(Cl)cc(Cl)cc1[N+](=O)[O-]", "growth [%]": 103}
{"COMPOUND": "COc1ccc(-c2cc(-c3ccccc3)nc(SCCCCCCC(=O)NO)n2)cc1", "growth [%]": 50.1}
{"COMPOUND": "CC(C)(C)OC(=O)CN1CCc2c(sc3ncnc(N/N=C/c4ccccc4Br)c23)C1", "growth [%]": 77.6}
{"COMPOUND": "C=C(C)[C@@H]1CC[C@]2(COCCC#N)CC[C@]3(C)[C@H](CC[C@@H]4[C@@]5(C)Cc6c([nH]c7ccccc67)C(C)(C)[C@@H]5CC[C@]43C)[C@@H]12", "growth [%]": 99.8}
{"COMPOUND": "Fc1ccc(C(c2ccc(F)cc2)C(Cl)Cl)cc1", "growth [%]": 102}
{"COMPOUND": "OC(CCN1CCCC1)(c1ccccc1)C1CCCCC1 (stereo unspecified)", "growth [%]": 104}
{"COMPOUND": "CCOC(=O)CN(c1sc(C)c(C)c1C(=O)OCC)S(=O)(=O)c1ccc(C)cc1", "growth [%]": 91.6}
{"COMPOUND": "CN1CCN(C2=Nc3ccccc3Oc3ccc(Cl)cc32)CC1", "growth [%]": 94.8}
{"COMPOUND": "CCOC(=O)N/N=C/c1ccc(OC)c(OC)c1", "growth [%]": 102}
{"COMPOUND": "O=C1c2ccccc2C(=O)c2c1ccc(C(Br)Br)c2[N+](=O)[O-]", "growth [%]": 94.6}
{"COMPOUND": "NNC(=O)Oc1c(Cl)cc(Cl)cc1[N+](=O)[O-]", "growth [%]": 96.9}
{"COMPOUND": "CC(=O)/C(=C/c1ccc(Br)cc1)C(=O)c1ccccc1", "growth [%]": 94}
{"COMPOUND": "Cc1n[nH]c(C)c1N=Nc1cccc2c1C(=O)c1ccccc1C2=O", "growth [%]": 105}
